# measurementTarget: hHCN4 (Homo sapiens, UniProt Q9Y3Q4)
# Sequence (Q9Y3Q4 1-1203): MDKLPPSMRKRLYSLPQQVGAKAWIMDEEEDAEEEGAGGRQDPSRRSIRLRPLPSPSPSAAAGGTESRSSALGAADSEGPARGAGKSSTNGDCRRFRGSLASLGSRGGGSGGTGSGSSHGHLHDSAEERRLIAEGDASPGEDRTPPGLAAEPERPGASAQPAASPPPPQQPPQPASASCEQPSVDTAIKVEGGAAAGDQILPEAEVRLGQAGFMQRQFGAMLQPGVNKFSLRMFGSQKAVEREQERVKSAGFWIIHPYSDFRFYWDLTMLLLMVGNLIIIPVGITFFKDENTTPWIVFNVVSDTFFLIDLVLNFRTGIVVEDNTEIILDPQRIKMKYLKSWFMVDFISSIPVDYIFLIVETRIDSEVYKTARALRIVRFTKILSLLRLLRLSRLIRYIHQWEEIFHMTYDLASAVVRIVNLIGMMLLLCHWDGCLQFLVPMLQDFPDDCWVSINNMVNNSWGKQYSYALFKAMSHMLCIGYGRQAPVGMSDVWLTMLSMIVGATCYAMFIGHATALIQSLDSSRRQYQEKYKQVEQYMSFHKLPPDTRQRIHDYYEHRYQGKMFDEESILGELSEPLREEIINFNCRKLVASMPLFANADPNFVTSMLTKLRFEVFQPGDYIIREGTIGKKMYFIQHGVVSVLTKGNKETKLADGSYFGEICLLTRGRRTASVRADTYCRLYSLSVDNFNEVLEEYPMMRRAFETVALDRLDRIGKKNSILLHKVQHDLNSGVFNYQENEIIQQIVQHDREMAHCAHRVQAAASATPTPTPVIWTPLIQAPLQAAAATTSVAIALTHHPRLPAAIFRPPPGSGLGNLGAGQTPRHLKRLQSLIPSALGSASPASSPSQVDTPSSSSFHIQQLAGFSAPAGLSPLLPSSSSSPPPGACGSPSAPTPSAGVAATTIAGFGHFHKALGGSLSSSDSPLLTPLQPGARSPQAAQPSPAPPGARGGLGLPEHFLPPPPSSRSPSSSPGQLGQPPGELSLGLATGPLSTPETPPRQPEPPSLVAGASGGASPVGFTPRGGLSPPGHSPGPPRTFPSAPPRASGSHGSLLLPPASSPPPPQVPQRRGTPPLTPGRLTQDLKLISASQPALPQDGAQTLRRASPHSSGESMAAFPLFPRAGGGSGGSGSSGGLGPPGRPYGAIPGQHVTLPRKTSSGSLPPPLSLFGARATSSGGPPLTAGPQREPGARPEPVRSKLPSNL
# procedureText: voltage clamp currents in mammalian cells stably transfected with cloned ion channel cDNA, hHCN4
# assayContext: 0.1 Hz, read-out: Estimated IC50 at 0.1 Hz
observable: IC50 (µM)

>>> assayresult("O=c1[nH]c2ccccc2n1CCCN1CCC(n2c(=O)[nH]c3cc(Cl)ccc32)CC1")
30.3

====

# measurementTarget: hNav1.3 (Homo sapiens)
# Construct: expressed in transfected cells
# Sequence (Q9NY46 whole entry): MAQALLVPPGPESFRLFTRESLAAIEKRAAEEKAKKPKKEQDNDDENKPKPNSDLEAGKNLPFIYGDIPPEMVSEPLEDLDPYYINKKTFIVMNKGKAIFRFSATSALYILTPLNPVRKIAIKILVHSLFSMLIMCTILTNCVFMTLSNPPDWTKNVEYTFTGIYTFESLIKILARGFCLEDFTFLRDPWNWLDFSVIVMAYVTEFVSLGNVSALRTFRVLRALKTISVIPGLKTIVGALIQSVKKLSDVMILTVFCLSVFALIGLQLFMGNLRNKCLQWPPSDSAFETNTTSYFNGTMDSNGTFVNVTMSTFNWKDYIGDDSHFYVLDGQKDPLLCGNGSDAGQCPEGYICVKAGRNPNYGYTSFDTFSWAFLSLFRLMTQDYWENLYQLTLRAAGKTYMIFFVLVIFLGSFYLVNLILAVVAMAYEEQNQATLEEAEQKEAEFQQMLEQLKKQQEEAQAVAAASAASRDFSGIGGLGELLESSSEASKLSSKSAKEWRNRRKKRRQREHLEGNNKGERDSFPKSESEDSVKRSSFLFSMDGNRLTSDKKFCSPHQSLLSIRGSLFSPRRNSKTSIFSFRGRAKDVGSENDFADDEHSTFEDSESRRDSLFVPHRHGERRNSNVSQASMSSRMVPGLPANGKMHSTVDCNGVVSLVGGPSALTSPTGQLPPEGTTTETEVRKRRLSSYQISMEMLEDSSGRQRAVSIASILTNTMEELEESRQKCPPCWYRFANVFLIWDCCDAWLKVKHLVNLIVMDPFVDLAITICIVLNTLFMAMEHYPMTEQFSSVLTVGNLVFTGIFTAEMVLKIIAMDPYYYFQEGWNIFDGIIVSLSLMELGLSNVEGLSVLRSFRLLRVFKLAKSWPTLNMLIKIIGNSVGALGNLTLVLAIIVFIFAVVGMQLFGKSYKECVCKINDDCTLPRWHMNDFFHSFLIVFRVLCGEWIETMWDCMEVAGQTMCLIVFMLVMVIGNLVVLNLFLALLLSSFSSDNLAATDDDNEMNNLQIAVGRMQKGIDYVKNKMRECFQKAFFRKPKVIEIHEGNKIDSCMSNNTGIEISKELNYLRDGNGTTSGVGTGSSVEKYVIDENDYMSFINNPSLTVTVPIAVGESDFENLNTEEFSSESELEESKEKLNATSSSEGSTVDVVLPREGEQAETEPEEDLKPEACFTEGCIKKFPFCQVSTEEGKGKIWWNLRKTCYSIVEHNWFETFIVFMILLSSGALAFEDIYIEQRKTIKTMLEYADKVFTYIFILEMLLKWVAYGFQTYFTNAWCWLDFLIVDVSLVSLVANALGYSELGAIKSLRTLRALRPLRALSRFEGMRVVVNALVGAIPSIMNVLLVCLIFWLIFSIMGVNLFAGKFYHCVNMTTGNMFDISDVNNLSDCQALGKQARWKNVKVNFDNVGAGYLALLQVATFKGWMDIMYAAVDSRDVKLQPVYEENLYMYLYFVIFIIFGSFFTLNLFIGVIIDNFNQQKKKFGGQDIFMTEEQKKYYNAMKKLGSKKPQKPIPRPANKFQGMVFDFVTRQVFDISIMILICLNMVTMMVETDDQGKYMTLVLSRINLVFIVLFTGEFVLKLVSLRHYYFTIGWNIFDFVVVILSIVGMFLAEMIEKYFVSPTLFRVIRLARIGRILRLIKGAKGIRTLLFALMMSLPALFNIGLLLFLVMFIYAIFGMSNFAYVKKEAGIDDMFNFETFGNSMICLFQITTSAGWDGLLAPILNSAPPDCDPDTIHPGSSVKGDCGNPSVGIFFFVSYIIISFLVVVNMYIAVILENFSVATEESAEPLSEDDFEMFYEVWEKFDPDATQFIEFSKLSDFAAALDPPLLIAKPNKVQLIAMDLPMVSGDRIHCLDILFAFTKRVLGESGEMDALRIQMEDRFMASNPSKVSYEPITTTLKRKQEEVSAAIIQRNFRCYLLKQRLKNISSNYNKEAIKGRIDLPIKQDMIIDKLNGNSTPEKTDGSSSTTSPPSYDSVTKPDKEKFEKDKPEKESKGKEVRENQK
# procedureText: voltage clamp currents in mammalian cells stably transfected with cloned ion channel cDNA, hNav1.3
# Format: cell-based
# assayContext: 0.1 Hz, read-out: Estimated IC50 at 0.1 Hz
observable: IC50 (µM)

>>> assayresult("O=c1[nH]c2ccccc2n1CCCN1CCC(n2c(=O)[nH]c3cc(Cl)ccc32)CC1")
207

====

# measurementTarget: hKv4.3 (Homo sapiens, UniProt Q9UK17)
# Sequence (Q9UK17 1-655): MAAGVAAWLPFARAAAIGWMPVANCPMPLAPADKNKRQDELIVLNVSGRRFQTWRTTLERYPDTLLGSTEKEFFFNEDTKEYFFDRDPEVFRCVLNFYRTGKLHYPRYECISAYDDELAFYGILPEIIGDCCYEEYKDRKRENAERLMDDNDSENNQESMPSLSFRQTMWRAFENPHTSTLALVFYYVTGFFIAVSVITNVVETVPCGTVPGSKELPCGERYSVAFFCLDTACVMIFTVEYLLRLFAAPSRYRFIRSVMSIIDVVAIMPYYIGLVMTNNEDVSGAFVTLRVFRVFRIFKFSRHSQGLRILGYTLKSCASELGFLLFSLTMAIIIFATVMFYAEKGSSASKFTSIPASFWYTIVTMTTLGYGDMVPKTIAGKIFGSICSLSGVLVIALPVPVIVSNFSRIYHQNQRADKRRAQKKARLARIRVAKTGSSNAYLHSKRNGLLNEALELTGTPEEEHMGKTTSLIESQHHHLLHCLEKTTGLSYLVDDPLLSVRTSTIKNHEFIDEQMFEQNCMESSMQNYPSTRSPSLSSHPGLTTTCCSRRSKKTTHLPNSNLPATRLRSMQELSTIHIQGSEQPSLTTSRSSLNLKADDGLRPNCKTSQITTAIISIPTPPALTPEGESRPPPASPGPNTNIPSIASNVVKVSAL
# procedureText: voltage clamp currents in mammalian cells stably transfected with cloned ion channel cDNA, hKv4.3
# assayContext: 0.1 Hz, read-out: Estimated IC50 at 0.1 Hz
# From the text: Nonlinear least squares fits of the current ratio data yielded the best fit value for the IC50 concentration. A positive control was included for each channel tested in the study.
pIC50: −log10 of the molar value.
observable: pIC50

>>> assayresult("O=c1[nH]c2ccccc2n1CCCN1CCC(n2c(=O)[nH]c3cc(Cl)ccc32)CC1")
2.70

====

# measurementTarget: hCav3.2 (Homo sapiens)
# procedureText: cell-based
# assayContext: Estimated IC50 at 0.1 Hz, 0.1 Hz
# Text: Nonlinear least squares fits of the current ratio data yielded the best fit value for the IC50 concentration. A positive control was included for each channel tested in the study.
pIC50: −log10 of the molar value.
observable: pIC50

>>> assayresult("O=c1[nH]c2ccccc2n1CCCN1CCC(n2c(=O)[nH]c3cc(Cl)ccc32)CC1 [domperidone]")
4.99

====

# measurementTarget: UniProt P22001
# Sequence (P22001 whole entry): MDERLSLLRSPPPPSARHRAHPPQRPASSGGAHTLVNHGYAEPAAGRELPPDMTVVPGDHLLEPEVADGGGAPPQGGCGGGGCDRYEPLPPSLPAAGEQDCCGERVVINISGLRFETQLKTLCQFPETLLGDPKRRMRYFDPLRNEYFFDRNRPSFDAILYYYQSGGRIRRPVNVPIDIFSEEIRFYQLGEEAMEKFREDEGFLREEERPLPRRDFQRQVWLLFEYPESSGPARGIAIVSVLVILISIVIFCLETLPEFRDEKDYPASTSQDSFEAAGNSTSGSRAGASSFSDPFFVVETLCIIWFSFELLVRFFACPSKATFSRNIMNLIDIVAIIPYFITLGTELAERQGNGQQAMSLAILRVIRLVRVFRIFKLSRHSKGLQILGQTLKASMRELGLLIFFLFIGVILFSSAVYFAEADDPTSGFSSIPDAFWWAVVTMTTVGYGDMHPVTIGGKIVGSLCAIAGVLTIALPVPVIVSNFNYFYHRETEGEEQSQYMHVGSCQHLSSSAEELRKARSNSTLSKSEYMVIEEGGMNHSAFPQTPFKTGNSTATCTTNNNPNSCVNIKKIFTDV
# procedureText: voltage clamp currents in mammalian cells stably transfected with cloned ion channel cDNA, hKv1.3
# assayContext: 0.1 Hz, read-out: Estimated IC50 at 0.1 Hz
# Description: Nonlinear least squares fits of the current ratio data yielded the best fit value for the IC50 concentration. A positive control was included for each channel tested in the study.
observable: IC50 (µM)

>>> assayresult("O=c1[nH]c2ccccc2n1CCCN1CCC(n2c(=O)[nH]c3cc(Cl)ccc32)CC1")
46.8

====

# measurementTarget: hCav3.2 (Homo sapiens, UniProt O95180)
# Sequence (O95180 whole entry): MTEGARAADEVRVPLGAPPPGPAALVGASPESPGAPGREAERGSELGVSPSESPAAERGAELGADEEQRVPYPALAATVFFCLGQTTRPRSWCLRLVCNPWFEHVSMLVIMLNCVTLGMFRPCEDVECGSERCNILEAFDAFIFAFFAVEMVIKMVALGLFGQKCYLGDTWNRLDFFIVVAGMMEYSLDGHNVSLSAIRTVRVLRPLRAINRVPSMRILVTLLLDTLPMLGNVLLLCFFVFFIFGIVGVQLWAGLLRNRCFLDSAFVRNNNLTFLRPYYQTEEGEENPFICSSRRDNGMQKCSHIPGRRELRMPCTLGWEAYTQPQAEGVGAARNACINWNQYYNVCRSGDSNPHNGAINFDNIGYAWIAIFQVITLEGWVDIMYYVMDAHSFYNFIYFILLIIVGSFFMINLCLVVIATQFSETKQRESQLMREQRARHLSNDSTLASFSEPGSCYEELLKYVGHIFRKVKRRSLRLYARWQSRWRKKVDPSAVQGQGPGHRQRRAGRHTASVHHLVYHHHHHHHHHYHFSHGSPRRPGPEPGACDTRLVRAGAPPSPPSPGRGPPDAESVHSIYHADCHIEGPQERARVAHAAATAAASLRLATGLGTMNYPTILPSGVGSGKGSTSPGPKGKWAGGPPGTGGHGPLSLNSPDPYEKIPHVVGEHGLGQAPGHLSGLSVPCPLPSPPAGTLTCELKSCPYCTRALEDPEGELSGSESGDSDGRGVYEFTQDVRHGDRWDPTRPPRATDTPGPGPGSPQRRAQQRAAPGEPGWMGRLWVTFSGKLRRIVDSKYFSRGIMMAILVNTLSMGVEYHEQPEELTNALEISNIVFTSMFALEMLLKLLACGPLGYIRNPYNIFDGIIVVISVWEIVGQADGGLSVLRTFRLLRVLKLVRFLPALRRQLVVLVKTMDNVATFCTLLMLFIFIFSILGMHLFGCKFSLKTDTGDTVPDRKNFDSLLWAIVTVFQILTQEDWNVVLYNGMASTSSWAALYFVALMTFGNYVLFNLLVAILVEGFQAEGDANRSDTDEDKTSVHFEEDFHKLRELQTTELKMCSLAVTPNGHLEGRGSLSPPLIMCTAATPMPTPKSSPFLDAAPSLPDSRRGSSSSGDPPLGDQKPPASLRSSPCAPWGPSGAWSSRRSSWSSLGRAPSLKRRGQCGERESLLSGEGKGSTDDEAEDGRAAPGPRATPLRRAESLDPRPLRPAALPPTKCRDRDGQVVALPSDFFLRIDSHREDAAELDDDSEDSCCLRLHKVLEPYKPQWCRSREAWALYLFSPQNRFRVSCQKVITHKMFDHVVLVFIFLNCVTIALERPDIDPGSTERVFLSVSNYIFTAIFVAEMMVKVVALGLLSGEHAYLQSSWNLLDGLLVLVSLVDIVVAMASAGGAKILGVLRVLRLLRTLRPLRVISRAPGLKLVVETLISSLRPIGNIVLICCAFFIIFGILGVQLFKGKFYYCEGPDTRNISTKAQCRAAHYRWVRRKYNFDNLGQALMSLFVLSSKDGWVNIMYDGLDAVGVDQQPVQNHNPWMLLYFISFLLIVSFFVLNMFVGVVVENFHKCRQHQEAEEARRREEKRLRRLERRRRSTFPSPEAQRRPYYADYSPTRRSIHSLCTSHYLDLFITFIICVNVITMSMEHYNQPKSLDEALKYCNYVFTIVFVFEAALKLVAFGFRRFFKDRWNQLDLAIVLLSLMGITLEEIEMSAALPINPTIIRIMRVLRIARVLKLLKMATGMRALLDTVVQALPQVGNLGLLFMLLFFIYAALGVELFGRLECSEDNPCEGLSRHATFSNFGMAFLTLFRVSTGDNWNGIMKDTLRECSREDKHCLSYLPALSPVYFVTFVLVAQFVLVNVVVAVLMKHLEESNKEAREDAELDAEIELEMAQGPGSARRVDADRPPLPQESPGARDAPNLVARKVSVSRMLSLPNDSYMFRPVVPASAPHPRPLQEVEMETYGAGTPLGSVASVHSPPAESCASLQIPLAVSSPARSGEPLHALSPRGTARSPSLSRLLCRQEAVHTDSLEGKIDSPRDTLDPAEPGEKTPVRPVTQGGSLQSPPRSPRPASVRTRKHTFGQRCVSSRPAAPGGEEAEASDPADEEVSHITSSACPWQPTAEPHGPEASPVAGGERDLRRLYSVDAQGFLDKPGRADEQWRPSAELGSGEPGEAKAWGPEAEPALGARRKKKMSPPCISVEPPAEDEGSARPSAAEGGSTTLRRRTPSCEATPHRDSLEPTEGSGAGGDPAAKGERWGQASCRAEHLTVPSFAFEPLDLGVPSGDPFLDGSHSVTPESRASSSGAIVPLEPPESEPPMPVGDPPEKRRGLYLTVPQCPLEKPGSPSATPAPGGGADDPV
# procedureText: cell-based
# assayContext: Estimated IC50 at 3 Hz, 3 Hz
observable: IC50 (nM)

>>> assayresult("O=c1[nH]c2ccccc2n1CCCN1CCC(n2c(=O)[nH]c3cc(Cl)ccc32)CC1")
1220
